Parameter inhibition: see the listing below.
Biological target: Furin (Homo sapiens)
Assay: human furin inhibitors, primary screen, biochemical, fluorescence intensity (AID 463115)
Details: purified furin, fluorogenic substrate cleavage, active compounds read high; at 30 µM unless noted
Out of some 220,000 compounds screened, about 130 (0.059%) were called active. Many of the other results were omitted from the sample, so actives are more common in it than they were.
READOUT_TYPE: inhibition

• Cc1oc(-c2ccccc2Cl)[n+]([O-])c1C = -9.84% [at 20 µM] (inactive)
• Cc1cc(C(=O)N2CCC(C(=O)O)CC2)c(C(F)(F)F)o1 = -9.96% (inactive)
• COc1ccc(NC(=O)C(NC(C)=O)C(=O)NCc2ccccc2Cl)cc1 (stereo unspecified) = -24.7% [at 20 µM] (inactive)
• CCOc1ccc(N2C(=O)/C(=C/c3ccc(C)o3)N(C)C2=S)cc1 = 3.15% (inactive)
• O=C(O)Cc1csc(NC(=O)CSc2nnnn2-c2ccc(O)cc2)n1 = -27.1% (inactive)
• NC(N)=Nc1nc2ccc(Br)cc2c(=O)[nH]1 = -13.8% (inactive)
